targetOrSystem: AβO in the low molecular weight (LMW) fraction of pooled soluble human AD brain extract (~8 kDa to ~70 kDa) (human) (UniProt P05067)
assayInfo: SPR; BRU on LMW fraction divided by BRU on HMW fraction; Study 1
experimentalReadout: LMW/HMW ratio

Sample records with LMW/HMW ratio:
[[record]]
binder = "parental antibody, PMN310 humanized antibody variant VH2/Vk5 (human IgG4 S241P / kappa) (antibody, V domains shown) VH: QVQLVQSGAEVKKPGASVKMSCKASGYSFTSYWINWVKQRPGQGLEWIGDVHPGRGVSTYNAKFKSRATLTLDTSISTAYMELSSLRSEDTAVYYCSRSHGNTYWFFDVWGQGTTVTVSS VL: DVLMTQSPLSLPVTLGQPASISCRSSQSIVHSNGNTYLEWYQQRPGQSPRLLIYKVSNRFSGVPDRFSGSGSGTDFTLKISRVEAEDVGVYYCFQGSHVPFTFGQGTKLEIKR"
reported = 1

[[record]]
binder = "Clone 4 (affinity matured VH with parental Vk, human IgG4 S241P / kappa) (antibody, V domains shown) VH: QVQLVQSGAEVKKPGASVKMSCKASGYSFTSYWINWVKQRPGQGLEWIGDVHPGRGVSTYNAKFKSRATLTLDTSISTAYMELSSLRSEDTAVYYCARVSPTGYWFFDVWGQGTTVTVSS VL: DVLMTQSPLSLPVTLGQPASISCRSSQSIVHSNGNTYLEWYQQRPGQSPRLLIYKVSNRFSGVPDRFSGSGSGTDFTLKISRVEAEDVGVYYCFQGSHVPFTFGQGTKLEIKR"
reported = 1.32

[[record]]
binder = "Clone 14 (affinity matured VH with parental Vk, human IgG4 S241P / kappa) (antibody, V domains shown) VH: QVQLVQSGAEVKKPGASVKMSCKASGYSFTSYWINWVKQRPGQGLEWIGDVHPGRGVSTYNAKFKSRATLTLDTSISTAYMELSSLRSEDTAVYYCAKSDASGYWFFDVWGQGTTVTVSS VL: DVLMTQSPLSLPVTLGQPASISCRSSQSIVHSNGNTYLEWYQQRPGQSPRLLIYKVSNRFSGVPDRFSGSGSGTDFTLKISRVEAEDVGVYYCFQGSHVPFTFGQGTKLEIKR"
reported = 1.1


The record that follows has no LMW/HMW ratio shown yet.
## Input For the binder Clone 5 (affinity matured VH with parental Vk, human IgG4 S241P / kappa) (antibody, V domains shown) VH: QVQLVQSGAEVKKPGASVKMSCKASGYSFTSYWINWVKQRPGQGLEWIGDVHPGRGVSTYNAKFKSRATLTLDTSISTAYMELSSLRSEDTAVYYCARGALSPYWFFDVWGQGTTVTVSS VL: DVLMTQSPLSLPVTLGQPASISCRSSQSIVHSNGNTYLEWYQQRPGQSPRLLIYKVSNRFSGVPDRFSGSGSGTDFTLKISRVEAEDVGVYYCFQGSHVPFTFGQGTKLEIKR , what LMW/HMW ratio is on record?
## Output 1
